- TEST_SYSTEM: ACC (acetyl CoA carboxylase) purified from liver of male SD rat (Rattus norvegicus)
- Construct: applied to a monomeric avidin sepharose column, and washed with buffer B. The ACC was eluted with buffer B containing 2 mM d-biotin; from tissue; host or cells: liver of male SD rat
- RUN_DESCRIPTION: Measurement of ACC inhibition activity ([14C]-NaHCO3 incorporation)
- Type: biochemical
- MEASUREMENT_CONTEXT: ACC inhibition activity rate at 1 μM; Table 4-IV, Mode 4 benzenediamine compounds (numbers = x-IV); read-out: ACC Inhibition (%)
PROPERTY: inhibition at 1 µM (%)

compound="CC(C)CCN(C)c1ccc(C(=O)NC(CC(=O)NS(=O)(=O)c2ccccc2)C2CCCCC2)cc1NC1CCC1 (stereo not drawn)" reported_result=59
compound=O=C(Nc1cccc(C(=O)NS(=O)(=O)c2ccccc2)c1)c1ccc(NCCN2CCCC2)c([N+](=O)[O-])c1 reported_result=58
compound=CCCCCC(=O)NS(=O)(=O)c1ccccc1NC(=O)c1ccc(Nc2c(F)c(F)c(C(F)(F)F)c(F)c2F)c([N+](=O)[O-])c1 reported_result=50

----------
- TEST_SYSTEM: ACC (acetyl CoA carboxylase) purified from liver of male SD rat (Rattus norvegicus)
- Construct: applied to a monomeric avidin sepharose column, and washed with buffer B. The ACC was eluted with buffer B containing 2 mM d-biotin; from tissue; host or cells: liver of male SD rat
- RUN_DESCRIPTION: Measurement of ACC inhibition activity ([14C]-NaHCO3 incorporation)
- Format: biochemical
- MEASUREMENT_CONTEXT: ACC inhibition activity rate at 1 μM; Table 2-III, Mode 3 acetylene/oxadiazole/thiazole compounds (numbers = x-III); read-out: ACC Inhibition (%)
PROPERTY: inhibition at 1 µM (%)

Answered examples (3):
compound="O=C1c2ccccc2C(=O)N1c1cccc(C#Cc2cccc(C(F)(F)F)c2)c1 [compound 18]" unit_label=% reported_result=60
compound="O=C(O)c1ccc(-c2csc(-c3ccc(C#Cc4cccc(C(F)(F)F)c4)cc3)n2)cc1 [compound 36]" unit_label=% reported_result=54
compound="O=C(O)c1ccccc1C(=O)Nc1ccc(-c2csc(-c3cc(C(F)(F)F)ccc3F)n2)cc1 [compound 99]" unit_label=% reported_result=52

I. O=C(O)c1ccccc1-c1nc(-c2ccc(-c3nc(-c4cc(C(F)(F)F)cc(C(F)(F)F)c4)cs3)cc2)cs1 [compound 1]
II. CC(C)c1ccc(S(=O)(=O)NC(=O)c2ccc(-c3csc(-c4ccc(C#Cc5cccc(C(F)(F)F)c5)cc4)n3)cc2)cc1 [compound 105]
Which shows the larger inhibition at 1 µM value: I or II ? Let me know the label of the one you choose.
II

P. O=C(O)c1cccc(-c2nc(-c3ccc(C#Cc4cccc(C(F)(F)F)c4)cc3)no2)c1 [compound 27]
Q. CC(C)c1ccc(S(=O)(=O)NC(=O)C(Cc2ccccc2)NC(=O)Nc2ccc(-c3csc(-c4ccccc4)n3)cc2)cc1 (stereo not shown) [compound 130]
Which shows the larger inhibition at 1 µM value: P or Q ? Let me know the label of the one you choose.
Q

I. O=C(O)c1ccc(-c2nc(-c3ccc(C#Cc4cccc(C(F)(F)F)c4)cc3)no2)cc1 [compound 28]
II. CC(C)c1ccc(S(=O)(=O)NC(=O)c2cccc(-c3nc(-c4ccc(-c5csc(-c6ccc(C(F)(F)F)cc6)n5)cc4)no3)c2)cc1 [compound 106]
Which shows the larger inhibition at 1 µM value: I or II ? Let me know the label of the one you choose.
II

A. O=C1C(c2ccccc2)=C(c2ccccc2)C(=O)N1c1cccc(C#Cc2cccc(C(F)(F)F)c2)c1 [compound 74]
B. CC(C)c1ccc(S(=O)(=O)NC(=O)c2ccc(-c3nc(-c4ccc(-c5csc(-c6ccc(C(F)(F)F)cc6)n5)cc4)no3)cc2)cc1 [compound 107]
Parameter metric = inhibition at 1 µM. Return the lower-valued option from A and B . Let me know the label of the one you choose.
A
